- Test system: 2G12 (anti-HIV gp120 broadly neutralizing antibody)
- Assay: pulldown
- Test Conditions: 2'-F pyrimidines; every U is 2'-F-5-ethynyl-U clicked to Man9-cyclohexyl azide (3 glycans); qPCR bead assay as glyco-RNA/DNA hybrid; Fbmax 1.1%
Parameter Measured: Kd (nM)
Give the number; nM is assumed, so skip it.

Item: GGAGAGAAGGAGGGAAGAGAGAAAAAAAACAGAGGGAACCCAGGUGAUUGGGGCAAGCGACACAAAGCCCGG [15F3-M1] | System: 2G12 (anti-HIV gp120 broadly neutralizing antibody) | Kd: 31

====

- System: 2G12 (anti-HIV gp120 broadly neutralizing antibody)
- Assay: FP filter
- Test Conditions: 2'-F pyrimidines; every U is 2'-F-5-ethynyl-U clicked to Man9-cyclohexyl azide (4 glycans); nitrocellulose filter binding, 32P RNA not gel purified; 20 mM Tris pH 7.5, 150 mM NaCl, 2 mM MgSO4; Fbmax 7.0%
Parameter Measured: pKd
Remember, pKd is on a log scale: it is -log10 of the molar concentration.

Item: GGAGAGAAGGAGGGAAGAGAGAAAAAAAACAUAGGGAACCCAGGUGAUUGGGGCAAGCGACACAAAGCCCGG [15F3] | System: 2G12 (anti-HIV gp120 broadly neutralizing antibody) | pKd: 7.89

Values compiled from patent US20250281598.
